target: Tyrosine-protein kinase JAK2 (Homo sapiens, UniProt O60674); assay: Inhibition of recombinant JAK2 using poly(Glu,Ala,Tyr) as substrate after 2 hrs by luminescence assay
Sequence (O60674 whole entry): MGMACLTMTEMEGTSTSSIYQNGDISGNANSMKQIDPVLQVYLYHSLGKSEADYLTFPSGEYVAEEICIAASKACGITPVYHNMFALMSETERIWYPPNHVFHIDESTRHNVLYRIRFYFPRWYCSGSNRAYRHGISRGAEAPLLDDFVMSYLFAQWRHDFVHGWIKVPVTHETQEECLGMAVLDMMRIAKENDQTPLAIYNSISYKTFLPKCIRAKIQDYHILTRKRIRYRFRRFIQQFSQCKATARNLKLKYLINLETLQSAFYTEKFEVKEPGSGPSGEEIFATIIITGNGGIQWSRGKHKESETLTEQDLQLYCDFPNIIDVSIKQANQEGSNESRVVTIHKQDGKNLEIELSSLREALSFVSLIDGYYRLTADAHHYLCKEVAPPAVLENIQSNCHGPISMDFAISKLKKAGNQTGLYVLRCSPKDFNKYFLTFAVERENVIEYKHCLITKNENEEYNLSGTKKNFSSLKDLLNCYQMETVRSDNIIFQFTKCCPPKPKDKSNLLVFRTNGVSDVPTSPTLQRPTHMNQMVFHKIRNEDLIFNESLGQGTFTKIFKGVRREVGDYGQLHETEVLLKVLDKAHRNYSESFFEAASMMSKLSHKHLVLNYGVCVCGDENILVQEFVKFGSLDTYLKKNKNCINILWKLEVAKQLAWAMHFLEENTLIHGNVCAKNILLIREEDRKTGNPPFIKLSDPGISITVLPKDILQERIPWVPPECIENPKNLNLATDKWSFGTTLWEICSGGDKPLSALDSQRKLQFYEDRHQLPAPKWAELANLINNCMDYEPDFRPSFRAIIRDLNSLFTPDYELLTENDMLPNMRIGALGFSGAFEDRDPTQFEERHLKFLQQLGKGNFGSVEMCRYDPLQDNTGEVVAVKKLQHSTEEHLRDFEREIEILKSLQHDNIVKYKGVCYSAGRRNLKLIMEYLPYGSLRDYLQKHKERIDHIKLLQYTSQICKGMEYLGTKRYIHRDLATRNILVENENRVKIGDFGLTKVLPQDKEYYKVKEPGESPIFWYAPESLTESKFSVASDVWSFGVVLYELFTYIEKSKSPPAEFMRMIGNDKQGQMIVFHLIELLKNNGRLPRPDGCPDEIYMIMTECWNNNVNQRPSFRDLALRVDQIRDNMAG
RECORDED METRIC: pIC50
Answers are plain numbers, as −log10 of the molar value.

CN1C/C=C/CCOc2cccc(c2)-c2ccnc(n2)Nc2ccc(OCC(=O)N3CCCC3)c(c2)C1; 6.85

### Prompt Give the measured pIC50 for `COc1cc2cc(c1OCCN1CCCC1)CN(C)C/C=C/CCOc1cccc(c1)-c1ccnc(n1)N2`
### Response 6.68

----------
Provide the reported log10 IC50 of each item.
biological target: UniProt:P36888; experiment: Inhibition of recombinant Flt3 using poly(Glu,Tyr) as substrate after 2 hrs by luminescence assay
Sequence (P36888 whole entry): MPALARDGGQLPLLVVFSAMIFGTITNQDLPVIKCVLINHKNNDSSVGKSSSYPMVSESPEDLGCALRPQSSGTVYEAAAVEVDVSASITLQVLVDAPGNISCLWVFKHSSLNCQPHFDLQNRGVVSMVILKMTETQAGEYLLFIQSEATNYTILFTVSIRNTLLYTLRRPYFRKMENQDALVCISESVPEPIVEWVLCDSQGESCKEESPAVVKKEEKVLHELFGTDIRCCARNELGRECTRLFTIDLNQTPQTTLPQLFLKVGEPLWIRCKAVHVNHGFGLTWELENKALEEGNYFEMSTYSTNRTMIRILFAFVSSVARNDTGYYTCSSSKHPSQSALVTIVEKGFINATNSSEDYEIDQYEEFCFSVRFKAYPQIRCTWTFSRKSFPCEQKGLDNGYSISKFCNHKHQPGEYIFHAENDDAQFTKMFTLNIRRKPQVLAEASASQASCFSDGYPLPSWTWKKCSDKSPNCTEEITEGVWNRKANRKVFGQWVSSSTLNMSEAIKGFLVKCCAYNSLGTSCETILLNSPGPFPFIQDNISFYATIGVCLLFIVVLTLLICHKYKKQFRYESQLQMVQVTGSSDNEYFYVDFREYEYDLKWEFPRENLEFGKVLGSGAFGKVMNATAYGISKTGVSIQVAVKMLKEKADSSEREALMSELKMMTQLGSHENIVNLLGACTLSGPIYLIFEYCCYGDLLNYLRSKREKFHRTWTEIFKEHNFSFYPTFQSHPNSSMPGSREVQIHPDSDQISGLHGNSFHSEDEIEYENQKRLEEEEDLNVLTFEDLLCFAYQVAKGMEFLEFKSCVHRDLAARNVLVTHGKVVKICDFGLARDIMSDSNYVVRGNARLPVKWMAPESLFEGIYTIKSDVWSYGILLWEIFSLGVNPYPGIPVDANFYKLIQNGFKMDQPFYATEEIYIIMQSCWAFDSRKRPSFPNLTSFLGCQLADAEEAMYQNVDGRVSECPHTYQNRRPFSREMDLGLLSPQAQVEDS
Use the decimal logarithm of IC50 (nM).

Worked examples, 3 compounds total:
C1=C/CNCc2cccc(c2)Nc2nccc(n2)-c2cccc(c2)OCC/1; 2.04
CN1CCN(CCOc2ccc3cc2CN(C)C/C=C/CCOc2cccc(c2)-c2ccnc(n2)N3)CC1; 2.40
CN1C/C=C/COCc2cccc(c2)-c2ccnc(n2)Nc2cccc(c2)C1; 2.32

Each of the following entries comes with a recorded value; kindly state log10 IC50 for each.
1. CN1C/C=C/CCOc2cccc(c2)-c2ccnc(n2)Nc2cc(N)cc(c2)C1
2. CN1C/C=C/CCOc2cc(F)cc(c2)-c2ccnc(n2)Nc2cccc(c2)C1
3. CC(C)NCC(=O)N1C/C=C/CCOc2cccc(c2)-c2ccnc(n2)Nc2cccc(c2)C1
4. COc1cc2cc(c1OCCN1CCCC1)CN(C)C/C=C/CCOc1cccc(c1)-c1ccnc(n1)N2
5. CN1C/C=C/CCOc2cccc(c2)-c2ccnc(n2)Nc2ccc(OCC(=O)N3CCCC3)c(c2)C1
6. CN1C/C=C/COCc2cccc(c2)Nc2nccc(n2)-c2cccc(c2)C1

### Response
[1.28, 1.34, 2.15, 1.99, 2.18, 2.49]

----------
experiment: Plasma protein binding in mouse at 1000 ng/ml after 4 hrs by equilibrium dialysis method; assay type: ADME, cell-free; details: read-out: PPB (converted)
RECORDED METRIC: fraction unbound at 4 h, 1000 ng/ml
Answers are plain numbers.

### Prompt Give the measured fraction unbound at 4 h, 1000 ng/ml for `CN1C/C=C/CCOc2cccc(c2)-c2ccnc(n2)Nc2cccc(c2)C1`
### Response 0.006

----------
test: Terminal half life in BALB/c mouse at 5 mg/kg, iv by LC-MS/MS analysis; assay type: ADME, organism-based; parameters: dose 5 mg/kg, route intravenous; settings: in vivo, read-out: beta t1/2 (converted)
RECORDED METRIC: half-life
Write down the value, and be sure its unit follows.

### Prompt Give the measured half-life for `CN1C/C=C/CCOc2cccc(c2)-c2ccnc(n2)Nc2cccc(c2)C1`
### Response 4.6 h

----------
assay: Terminal half life in BALB/c mouse at 75 mg/kg, po by LC-MS/MS analysis; format: ADME, organism-based; design: dose 75 mg/kg, route oral; conditions: in vivo, read-out: beta t1/2 (converted)
RECORDED METRIC: half-life (h)
One number for each entry, in h.

### Prompt Give the measured half-life for CN1C/C=C/CCOc2cccc(c2)-c2ccnc(n2)Nc2cccc(c2)C1 [ZOTIRACICLIB]
### Response 6.1

----------
target: Tyrosine-protein kinase JAK2 (Homo sapiens); experiment: Inhibition of recombinant JAK2 using poly(Glu,Ala,Tyr) as substrate after 2 hrs by luminescence assay
RECORDED METRIC: IC50 (nM)
Give bare numbers, in nM.

Worked examples, 4 compounds total:
CN1C/C=C/COCc2cccc(c2)Nc2nccc(n2)-c2cccc(c2)C1; 230
CN1C/C=C/CCOc2cccc(c2)-c2ccnc(n2)Nc2cc(cc(NC(=O)C(F)(F)F)c2)C1; 50
C1=C/CNc2cccc(c2)Nc2nccc(n2)-c2cccc(c2)OCC/1; 3300
CN1C/C=C/CCOc2cccc(c2)-c2ccnc(n2)Nc2ccc(OCCN3CCOCC3)c(c2)C1; 120

### Prompt Give the measured IC50 for `CCN(CC)CCOc1ccc2cc1CN(C)C/C=C/CCOc1cccc(c1)-c1ccnc(n1)N2`
### Response 48
